# System: M14 melanoma
# ASSAY TEXT: NCI tumour cell line growth inhibition, 48 h
EXPERIMENTAL READOUT: log10 of TGI (log10 of the value in µM)
Give log10 of TGI, with TGI taken in µM.

These recorded examples may help you get a feel for the data.
COMPOUND	log10 of TGI
COc1cc(C2C3=C(COC3=O)N(CCO)c3cc4c(cc32)OCO4)cc(OC)c1O (stereo unspecified)	0.88
Cc1ccc(NCCN(C)C)c2c(=O)c3ccccc3sc12	0.48
COc1ccc(C2C=C(c3ccc(Cl)cc3)N=C3SC=C(C)N32)c(Br)c1 (stereo unspecified)	1.20
CN(C)c1cccc2c1C(=O)C=CC21CCc2ccc(N(C)C)c3c(N(C)C)ccc1c23 (stereo unspecified)	1.46
CC1CN=C(c2cccc(-c3nc(-c4cccc(C5=NCC(C)N5)c4)nc(N(C)C)n3)c2)N1 (stereo unspecified)	1.11

Recorded result, "COc1ccc2[nH]c3c(C)cc([N+](=O)[O-])c(C)c3c2c1" , log10 of TGI: 1.73

Measured log10 of TGI, "CO[C@@H]1C[C@H](OC(N)=O)[C@@H]2C=C[C@@H]3/C=C(C)/C=C/[C@@H](C)[C@H](/C(C)=C/[C@@H](C)NC(C)=O)OC(=O)/C=C/C=C(C)\C=C\[C@]3(C)[C@@H]2C1" : -0.04

log10 of TGI recorded for this compound, "Nc1c2c(nc3ccccc13)-c1ccccc1NCCC2" , is 1.52

# log10 of TGI of "Nc1ccc(-c2nc3ccccc3s2)cc1C#Cc1ccccc1" = 1.49
